For each entry below, report its growth value.
- Tested on: BT-549 breast
- TEST_PROTOCOL: NCI-60 one-dose screen, 48 h (100 = growth as untreated, 0 = no growth, -100 = all killed)
- EXPERIMENTAL_PARAMETERS: 10 µM unless noted
- Experimental: Growth inhibition of the BT-549 human tumor cell line is measured as a screen for anti-cancer activity. Cells are grown in 96 well plates and exposed to the test compound for 48 hours. Compounds are tested at a single concentration, which is 10^-5 M for most compounds. The reported endpoint is percent growth (GI% or GIPRCNT), where numbers from 0 - 100% represent growth inhibition, and numbers from -100% - 0 represent cell death. For example, a value of 40 represents 60% growth inhibition. […]
This is part of a sample that, as a whole, favours compounds with a hit. Of some 83,000 tested, about 20% had one in any assay. The source made the active and inactive calls. How the source made its calls: active means growth percent below 10; inactive means the rest.

## Input Recorded growth for `COc1cc(/C=C/C(=O)c2ccc(Nc3nc(NCCO)nc(N4CCOCC4)n3)cc2)cc(OC)c1OC` with BT-549 breast, please?
## Output 33.5% (inactive)

## Input Recorded growth for O=C(NN1C(=O)CSC1c1ccc(Cl)cc1)c1[nH]c2ccc(F)cc2c1-c1ccccc1 (centres undefined) with BT-549 breast, please?
## Output 50.9% (inactive)

## Input Recorded growth for `O=C(Nc1ccc(N2CCNCC2)cc1)c1[nH]ncc1Nc1cc(Oc2ccccc2)ncn1` with BT-549 breast, please?
## Output 17.5% (inactive)

## Input Recorded growth for `FC(F)(F)c1cccc(Nc2nc(-c3ccccc3)nc3ncccc23)c1` with BT-549 breast, please?
## Output 60.8% (inactive)

* * *

For each entry below, report its growth value.
- Tested on: OVCAR-4 ovarian
- TEST_PROTOCOL: NCI-60 one-dose screen, 48 h (100 = growth as untreated, 0 = no growth, -100 = all killed)
- EXPERIMENTAL_PARAMETERS: 10 µM unless noted
- Description: Growth inhibition of the OVCAR-4 human tumor cell line is measured as a screen for anti-cancer activity. Cells are grown in 96 well plates and exposed to the test compound for 48 hours. Compounds are tested at a single concentration, which is 10^-5 M for most compounds. The reported endpoint is percent growth (GI% or GIPRCNT), where numbers from 0 - 100% represent growth inhibition, and numbers from -100% - 0 represent cell death. For example, a value of 40 represents 60% growth inhibition. […]
This is part of a sample that, as a whole, favours compounds with a hit. Of some 83,000 tested, about 20% had one in any assay.
The response must be a number in % with no trailing unit.

## Input Name the reported growth value associated with the compound `COc1cc(/C=C2\Oc3cc(OCCCN4CCCC4)ccc3C2=O)cc(OC)c1`
## Output 75.2

## Input Name the reported growth value associated with the compound `CCOC(=O)C1=CN(C)C=C(C(=O)OCC)C1c1cc(Br)c(OCC)c(OC)c1`
## Output 54.9

## Input Name the reported growth value associated with the compound COc1nc2c(c(=O)n1C)N=C1c3ccccc3C(=O)C1C(c1ccccc1)N2 (configuration not stated)
## Output 92.8

## Input Name the reported growth value associated with the compound `CN(C)c1ccc(N=Cc2ccc(N3CCOCC3)cc2)cc1`
## Output 19.1

## Input Name the reported growth value associated with the compound `C1CCN(c2nc(N3CCCCC3)nc(N3CCOCC3)n2)CC1`
## Output 96

## Input Name the reported growth value associated with the compound `Oc1ccc(-c2nc(-c3ccc4oc5ccc(-c6[nH]c(-c7ccc(O)cc7)nc6-c6ccccc6)cc5c4c3)c(-c3ccccc3)[nH]2)cc1`
## Output 52.9

## Input Name the reported growth value associated with the compound `COc1cc(-c2c3c(cn2S(=O)(=O)c2ccccc2)-c2nc(N)sc2CC3)cc(OC)c1OC`
## Output 56

## Input Name the reported growth value associated with the compound `O=c1c2cc(F)ccc2sc2c(NCCN3CCCC3)nc3ccccc3c12`
## Output 54.2

## Input Name the reported growth value associated with the compound COc1ccc(C2Nc3ncnc(N)c3N=C3c4ccccc4C(=O)C32)cc1 (configuration not stated)
## Output 82.8

## Input Name the reported growth value associated with the compound `COc1cccc(/C=C/C(=O)c2c(C)nc3ccccc3c2/C=C/c2ccccc2)c1OC`
## Output 46.3

## Input Name the reported growth value associated with the compound `COc1ccc(OC)c(/C=C/C(=O)c2c(C)nc3ccccc3c2/C=C/c2ccccc2)c1`
## Output 59.3

## Input Name the reported growth value associated with the compound `CC(=O)Nc1nc2c(s1)CCc1c-2cn(S(=O)(=O)c2ccccc2)c1-c1ccccc1`
## Output 84.3

## Input Name the reported growth value associated with the compound `COc1cc(C(=O)NN=C2c3ccccc3-c3ccccc32)cc(OC)c1OC`
## Output 55.5

## Input Name the reported growth value associated with the compound `COc1ccc(-c2cn[nH]c2-c2cc(OC)c(OC)c(OC)c2)cc1OCc1ccccc1`
## Output 50.1

## Input Name the reported growth value associated with the compound `Cc1c(C(=O)OCCO)cc(-c2ccc(Cl)cc2)n1-c1ccc(Cl)cc1Cl`
## Output 97.3

## Input Name the reported growth value associated with the compound `CNC(=O)c1cc(Oc2ccc(CC(=O)Nc3cc(C(C)(C)C)cn3C)cc2)ccn1`
## Output 48.9

## Input Name the reported growth value associated with the compound `Cc1ccc(NC2=CC(=O)C(=O)c3ccccc32)c(C)c1`
## Output 48.1

## Input Name the reported growth value associated with the compound `Cc1cccc(NC(=O)c2sc3nc4c(cc3c2N)CCCC4)c1C`
## Output 65.3

## Input Name the reported growth value associated with the compound `Oc1[nH]c2ccccc2c1N=Nc1nnc2n1N=C(c1ccccc1)CS2`
## Output 59.6

## Input Name the reported growth value associated with the compound Cc1ccc(NCCNCC(O)CO)c2c(=O)c3ccccc3sc12 (configuration not stated)
## Output 34.7

## Input Name the reported growth value associated with the compound Cc1nn(-c2nc3ccccc3[nH]2)c2c1C(c1ccc(OCC(N)=O)cc1)CC(=O)N2 (configuration not stated)
## Output 108

## Input Name the reported growth value associated with the compound `CC(=O)O[C@@H]1/C=C/C(=O)N[C@@H](C)CCC/C=C/[C@@H]2CCC[C@H]21`
## Output 109

## Input Name the reported growth value associated with the compound Cn1c2c(c(=O)[nH]c1=O)NC1=C(C(=O)c3ccccc31)C1(C=C(O)c3ccccc31)N2 (configuration not stated)
## Output 71.3

## Input Name the reported growth value associated with the compound `Cc1nc(Nc2cn[nH]c2C(=O)Nc2ccc(CN3CCN(C)CC3)cc2)c2ccsc2n1`
## Output 82.5

## Input Name the reported growth value associated with the compound CC1(C)CC2(C)OC2C2(C1)N=NC(=Nc1ccccc1)O2 (configuration not stated)
## Output 60.9

## Input Name the reported growth value associated with the compound NC(CCc1nc2ccccc2c(=O)[nH]1)C(=O)O (configuration not stated)
## Output 103

## Input Name the reported growth value associated with the compound `CCN(CC)CCNC(=O)C(Cl)=C1C(Cl)=C(Cl)C(Cl)=C1Cl`
## Output 41.9

* * *

- System: TK-10 renal
- TEST_PROTOCOL: NCI-60 one-dose screen, 48 h
- EXPERIMENTAL_PARAMETERS: 10 µM unless noted
This is part of a sample that, as a whole, favours compounds with a hit. Of some 83,000 tested, about 20% had one in any assay. Active and inactive are the calls of the source. The calls were made as follows: active = growth percent below 10; inactive = the rest.
Outcomes you can answer with include only these: 1.0 = active, 0.0 = inactive

## Input Status in this test for `N#C/C(=C1\SC(=O)CN1c1ccccc1)c1nc2ccccc2s1` ?
## Output 0.0

## Input Status in this test for COc1ccc(C2C3=C(COC3=O)N(CCO)c3cc4c(cc32)CCC4)cc1OC (centres undefined) ?
## Output 0.0

## Input Status in this test for CCOc1cc2c(cc1OCC)C(c1cc(C)c(O)c(C)c1)NCC2 (centres undefined) ?
## Output 0.0

## Input Status in this test for CCN1C(=O)N(CC)C2C1NN=c1s/c(=C3\C(=O)N(C(C)C)c4ccccc43)c(=O)n12 (centres undefined) ?
## Output 0.0

## Input Status in this test for `COc1ccc(S(=O)(=O)N(Cc2ccc3c(n2)C=CC(C)(C)O3)C2CCC2)cc1OC` ?
## Output 1.0

## Input Status in this test for CC1CCCCN1CCCNC(=O)c1ccc2c(c1)sc1nc(-c3ccc(F)cc3)cn12 (centres undefined) ?
## Output 0.0

## Input Status in this test for `O=c1c2cc(F)ccc2sc2c(NCCN3CCCC3)nc3ccccc3c12` ?
## Output 0.0

## Input Status in this test for `O=C(c1ccccc1)N(C(=S)NCCc1ccc(Cl)cc1)c1ccc(Cl)cc1` ?
## Output 0.0

## Input Status in this test for `O=C(NCCCN1CCC(N2CCCCC2)CC1)C1=Cc2cc(Br)ccc2OC1` ?
## Output 0.0
